B1: Calcium-binding protein 2, residues 155 to 219; numbered along this chain, Q9NPB3 (parent)
chain: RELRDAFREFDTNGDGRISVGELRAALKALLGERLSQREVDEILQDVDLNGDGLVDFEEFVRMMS

# Variants of: B1
# protocolDescription: abundance fitness (aPCA) (normalised: wild type 0, dead -1); higher = more abundant; growth selection in yeast, the domain comes from the species named
# testContext: Homo sapiens
Would you please tag the item criterion met when its abundance fitness is -0.2 or above, and criterion not met when it is below?

Exercise: # bool: abundance fitness of `A6E` >= -0.2
Key: criterion met

Exercise: Now give it for `E22N` too.
Key: criterion not met

Exercise: Would you kindly repeat that for `G53I` ?
Key: criterion met

Exercise: Repeat for the following variant: `E59Q`
Key: criterion met

Exercise: Query `N50F` next
Key: criterion not met

Exercise: Another: `M64Q`
Key: criterion met

Exercise: Let us now turn to `I18P`
Key: criterion not met

Exercise: Further, for `M63G` ?
Key: criterion met

Exercise: Try this variant too: `E2L`
Key: criterion not met

Exercise: Do the same for `V55M` please
Key: criterion not met

Exercise: Try this variant next: `L30F`
Key: criterion met

Exercise: Can you handle `K28V` next?
Key: criterion met
